System: CP211
Test: qHTS profiling for inhibitors of Plasmodium falciparum proliferation (AID 504749); note: nearly all actives have a fitted effect of over 60% in size; note: potency is the fitted concentration of half-maximal effect
Conditions: P. falciparum in erythrocytes, SYBR Green DNA, 72 h; series mostly up to 28.7 µM
Results filed as inconclusive are left out. Calls of active or inactive are those of the source. Calls come from the whole dose curve; as a rule, active = well fitted inhibition curve with a large enough effect; inconclusive = small, poorly fitted or top-dose-only effect; inactive = flat fitted curve, though single readings scatter.

compound: CC(=O)[C@H]1CC[C@H]2[C@@H]3C=CC4=CC(=O)CC[C@@]4(C)[C@H]3CC[C@]12C
Potency: inactive
--
compound: O.O.O.O.O.O.O.O=S(=O)([O-])[O-].[Co+2]
Potency: 9.53 µM (active)
--
compound: O=C(OCc1ccccc1)c1ccc(O)cc1
Potency: inactive
--
compound: CCCCC[C@H](O)/C=C/[C@H]1[C@H](O)CC(=O)[C@@H]1C/C=C\CCCC(=O)O
Potency: inactive
--
compound: COC(=O)c1ccccc1O
Potency: inactive
--
compound: CC1=C(/C=C/C(C)=C/C=C/C(C)=C/C(=O)Oc2c(C)c(C)c3c(c2C)CC[C@@](C)(CCC[C@H](C)CCC[C@H](C)CCCC(C)C)O3)C(C)(C)CCC1
Potency: inactive
--
compound: CC(C)(C)CC(C)(C)c1ccc(OCCO)cc1
Potency: inactive
--
compound: CC(C)NCC(O)COc1ccccc1-n1cccc1 (stereo unspecified)
Potency: inactive
--
compound: C(=C\c1ccncc1)/c1ccccc1
Potency: inactive
--
compound: O=C(O)[C@H]1CN(C/C=C/P(=O)(O)O)CCN1
Potency: inactive
--
compound: CC/C=C\C/C=C\C/C=C\C/C=C\C/C=C\C/C=C\CCC(=O)O
Potency: inactive

----------
Assay: qHTS of pediatric cancer cell lines to identify multiple opportunities for drug repurposing: Primary screen for SK-N-MC cells (AID 1347093)
Details: SK-N-MC viability, CellTiter-Glo luminescence, 48 h; series mostly up to 46 µM
Results filed as inconclusive are left out. Activity calls are given as the source filed them. Calls follow the shape of the dose curve; as a rule, active = well fitted cell-killing curve with a large enough effect; inconclusive = small, poorly fitted or top-dose-only effect; inactive = no such curve, though single readings can be large or run the other way.
Labels: active, inactive

compound-smiles: Oc1ccc(/C=C/c2cc(O)cc(O)c2)cc1
class: active
//
compound-smiles: O=C(OCc1ccccc1)c1ccc(O)cc1
class: inactive
//
compound-smiles: O=C(O)CCC(=O)c1ccc(-c2ccccc2)cc1
class: inactive
//
compound-smiles: COc1ccc2nc(NC(=O)Nc3ccccc3)sc2c1
class: inactive

----------
System: N140
Test: qHTS profiling for inhibitors of Plasmodium falciparum proliferation (AID 504749); note: nearly all actives have a fitted effect of over 60% in size
Settings: P. falciparum in erythrocytes, SYBR Green DNA, 72 h; series mostly up to 28.7 µM
Inconclusive results are not listed. Calls of active or inactive are those of the source. Calls come from the whole dose curve; as a rule, active = well fitted inhibition curve with a large enough effect; inconclusive = small, poorly fitted or top-dose-only effect; inactive = flat fitted curve, though single readings scatter.
Outcome codes: active, inactive

molecule: FC(F)(F)C(F)(F)C(F)(F)C(F)(F)C(F)(F)C(F)(F)F
class: inactive
//
molecule: C=C1C(CCl)(CCl)C2(Cl)C(Cl)C(Cl)C1(Cl)C2(Cl)Cl (stereo unspecified)
class: active
//
molecule: CN1C(C(=O)Nc2ccccn2)C(=O)c2sc(Cl)cc2S1(=O)=O (stereo unspecified)
class: inactive
//
molecule: CCc1ccc(S(=O)(=O)O)cc1
class: inactive
//
molecule: Cc1ccc(S(=O)(=O)O)cc1C
class: inactive
//
molecule: NCC[C@H](O)C(=O)N[C@@H]1C[C@H](N)[C@@H](O[C@H]2O[C@H](CN)CC[C@H]2N)[C@H](O)[C@H]1O[C@H]1O[C@H](CO)[C@@H](O)[C@H](N)[C@H]1O
class: inactive
